TARGET SYSTEM: human JAK2 (Homo sapiens, UniProt O60674)
Construct: JAK2 (a.a. 828-1132); His tag (N); made in house; host or cells: insect cells (baculovirus)
Sequence (O60674 828-1132): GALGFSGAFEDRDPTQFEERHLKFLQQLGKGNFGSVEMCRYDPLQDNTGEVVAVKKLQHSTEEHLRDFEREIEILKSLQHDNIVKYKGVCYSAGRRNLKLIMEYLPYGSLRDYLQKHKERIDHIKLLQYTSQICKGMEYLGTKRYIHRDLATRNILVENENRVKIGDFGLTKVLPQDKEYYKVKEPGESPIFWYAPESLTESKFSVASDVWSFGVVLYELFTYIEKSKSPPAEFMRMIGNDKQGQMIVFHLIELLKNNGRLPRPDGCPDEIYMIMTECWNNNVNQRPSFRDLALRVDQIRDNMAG
EXPERIMENT DESCRIPTION: In vitro JAK kinase assay (HTRF, phosphorylation of biotinylated peptide)
Assay type: biochemical
ASSAY SETUP: catalytic domain a.a. 828-1132, 30 μM ATP, 500 nM peptide, room temperature 1 hr; read-out: JAK-2 IC50
Recorded IC50, one value per entry.

{"COMPOUND": "Cc1cnc(Nc2ccc(N3CCNCC3)cc2)nc1-c1cnn(C(CC#N)C2CCCC2)c1 (racemic)", "IC50": "< 100 nM"}
{"COMPOUND": "CS(=O)(=O)CS(=O)(=O)Nc1ccc(Nc2nccc(-c3cnn(C(CC#N)C4CCCC4)c3)n2)cc1 (racemic)", "IC50": "< 100 nM"}
{"COMPOUND": "COc1cnc(Nc2cccc(C(=O)N3CCOCC3)c2)nc1-c1cnn(C(CC#N)C2CC2)c1 (racemic)", "IC50": "< 100 nM"}
{"COMPOUND": "CN1CCC(NC(=O)c2cccc(Nc3nccc(-c4cnn(C(CC#N)C5CCCC5)c4)n3)c2)CC1 (racemic)", "IC50": "< 100 nM"}
{"COMPOUND": "N#CCC(C1CCCC1)n1cc(-c2ccnc(Nc3cccc(C(=O)N4CCC(O)(c5ccccc5)CC4)c3)n2)cn1 (racemic)", "IC50": "< 100 nM"}
{"COMPOUND": "N#CCC(C1CCCC1)n1cc(-c2ccnc(Nc3ccc(N4CCOC4=O)cc3)n2)cn1 (racemic)", "IC50": "< 100 nM"}
{"COMPOUND": "N#CCC(C1CCCC1)n1cc(-c2ccnc(Nc3ccc(NC(=O)CN4CC[C@@H](O)C4)cc3)n2)cn1 (stereo partly shown)", "IC50": "< 100 nM"}

* * *

// IC50 collected for human JAK2 (Homo sapiens)
ATTRIBUTE MEASURED: IC50

{"COMPOUND": "COc1cnc(Nc2cccc(C(=O)N3CCCC3)c2)nc1-c1cnn(C(CC#N)C2CC2)c1 (racemic)", "RESULT": "< 0.1 µM"}
{"COMPOUND": "N#CCC(C1CCCC1)n1cc(-c2ccnc(Nc3ccc(N4CCCCC4=O)cc3)n2)cn1 (racemic)", "RESULT": "< 0.1 µM"}
{"COMPOUND": "CCCN(CC1CC1)C(=O)c1ccc(Nc2nccc(-c3cnn(C(CC#N)C4CCCC4)c3)n2)cc1 (racemic)", "RESULT": "< 0.1 µM"}
{"COMPOUND": "COc1ccc(Nc2nccc(-c3cnn(C(CC#N)CC4CCN(C(=O)c5ccc(F)cc5F)CC4)c3)n2)cc1 (racemic)", "RESULT": "< 0.1 µM"}

* * *

Entries below carry reported pIC50 on human JAK2 (Homo sapiens, UniProt O60674).
pIC50: −log10 of the molar value.
ATTRIBUTE MEASURED: pIC50

{"COMPOUND": "CC(NC(=O)c1cccc(Nc2nccc(-c3cnn(C(CC#N)C4CCCC4)c3)n2)c1)c1ccccn1 (mixture of isomers)", "ATTRIBUTE MEASURED": "pIC50", "RESULT": "> 7.00"}
{"COMPOUND": "N#CCC(C1CCCC1)n1cc(-c2ccnc(Nc3cccc(C(=O)NC4(CO)CCCC4)c3)n2)cn1 (racemic)", "ATTRIBUTE MEASURED": "pIC50", "RESULT": "> 7.00"}
{"COMPOUND": "Cc1cc(OC2CCC(CC#N)(n3cc(-c4ccnc(Nc5cccc(-c6cnco6)c5)n4)cn3)CC2)no1 (single isomer, unassigned)", "ATTRIBUTE MEASURED": "pIC50", "RESULT": "> 7.00"}

* * *

TARGET SYSTEM: human JAK2 (Homo sapiens)
pIC50: −log10 of the molar value.
Recorded pIC50 for the following molecules

{"MOLECULE": "COC[C@H]1CCCN1CC(=O)Nc1ccc(Nc2nccc(-c3cnn(C(CC#N)C4CCCC4)c3)n2)cc1 (mixture of isomers) [Example 209]", "pIC50": "> 7.00"}
{"MOLECULE": "CCS(=O)(=O)N1CCC(CC(CC#N)n2cc(-c3ccnc(Nc4ccc(-n5cccn5)cc4)n3)cn2)CC1 (racemic) [Example 43]", "pIC50": "> 7.00"}
{"MOLECULE": "Cc1cc(OC2CCC(CC#N)(n3cc(-c4ccnc(Nc5ccc(-n6cccn6)cc5)n4)cn3)CC2)no1 (single isomer, unassigned) [Example 246]", "pIC50": "> 7.00"}
{"MOLECULE": "CN(C)C1CCN(C(=O)c2ccc(Nc3nccc(-c4cnn(C(CC#N)C5CC5)c4)n3)cc2)C1 (mixture of isomers) [Example 270]", "pIC50": "> 7.00"}
{"MOLECULE": "COc1cnc(Nc2cccc(C(=O)N3CCC(O)CC3)c2)nc1-c1cnn(C(CC#N)C2CC2)c1 (racemic) [Example 329]", "pIC50": "> 7.00"}
{"MOLECULE": "Cc1cnc(Nc2ccc(-n3cccn3)cc2)nc1-c1cnn(C(CC#N)CC2CCN(C(=O)c3ccc(F)cc3F)CC2)c1 (racemic) [Example 64]", "pIC50": "> 7.00"}

* * *

pIC50: −log10 of the molar value.
# human JAK2 (Homo sapiens, UniProt O60674): pIC50 values follow

{"MOLECULE": "CN(C)S(=O)(=O)Nc1ccc(Nc2nccc(-c3cnn(C(CC#N)C4CCCC4)c3)n2)cc1 (racemic)", "TARGET SYSTEM": "human JAK2 (Homo sapiens, UniProt O60674)", "pIC50": "> 7.00"}
{"MOLECULE": "N#CCC(C1CC1)n1cc(-c2ccnc(Nc3ccc(C(=O)N4CC[C@@H](O)C4)cc3)n2)cn1 (mixture of isomers)", "TARGET SYSTEM": "human JAK2 (Homo sapiens, UniProt O60674)", "pIC50": "> 7.00"}
{"MOLECULE": "Cc1cnc(Nc2ccc(C(=O)N(C)C)cc2)nc1-c1cnn(C(CC#N)CC2CCN(S(=O)(=O)c3ccn(C)n3)CC2)c1 (racemic)", "TARGET SYSTEM": "human JAK2 (Homo sapiens, UniProt O60674)", "pIC50": "> 7.00"}
{"MOLECULE": "N#CCC(C1CCCC1)n1cc(-c2ccnc(Nc3cccc(C(=O)N4CCC(c5ccccn5)C4)c3)n2)cn1 (mixture of isomers)", "TARGET SYSTEM": "human JAK2 (Homo sapiens, UniProt O60674)", "pIC50": "> 7.00"}
{"MOLECULE": "CCN(CCCO)c1ccc(Nc2ncc(C)c(-c3cnn(C(CC#N)C4CCCC4)c3)n2)cc1 (racemic)", "TARGET SYSTEM": "human JAK2 (Homo sapiens, UniProt O60674)", "pIC50": "> 7.00"}
{"MOLECULE": "Cn1ccc(S(=O)(=O)N2CCC(CC(CC#N)n3cc(-c4ccnc(Nc5ccc(N6CCOCC6)cc5)n4)cn3)CC2)n1 (racemic)", "TARGET SYSTEM": "human JAK2 (Homo sapiens, UniProt O60674)", "pIC50": "> 7.00"}
